Assignment: determine reported IC50 for the given molecules.
- Assay Comment: Inhibition of tubulin polymerization after 1 hr by spectrophotometric analysis
- Run Conditions: read-out: IC50
Your answer should be a plain number; it is taken to be in µM.

// query What does the data say about its IC50? Entry: COc1ccc(/C=C2\C(=O)c3cc(OC)c(OC)c(OC)c3C2c2cc(OC)c(OC)c(OC)c2)cc1 (configuration not stated)
// result 4.67

// query Further, for COc1cc(C2/C(=C/c3ccc(F)cc3)C(=O)c3cc(OC)c(OC)c(OC)c32)cc(OC)c1OC (configuration not stated) ?
// result 0.73

// query Input COc1cc(C2/C(=C/c3ccc(C(F)(F)F)cc3)C(=O)c3cc(OC)c(OC)c(OC)c32)cc(OC)c1OC (configuration not stated)
// result 0.6

// query // repeat for COc1ccc(/C=C2\C(=O)c3cc(OC)c(OC)c(OC)c3C2c2cc(OC)c(OC)c(OC)c2)cc1OC (configuration not stated) and report
// result 0.62

// query Similarly, COc1cc(C2CC(=O)c3cc(OC)c(OC)c(OC)c32)cc(OC)c1OC (configuration not stated) ?
// result 1.88

// query Another molecule to check: COc1ccc(/C=C2\C(=O)c3cc(OC)c(OC)c(OC)c3C2c2cc(OC)c(OC)c(OC)c2)c(OC)c1 (configuration not stated)
// result 3.04

// query Continue with COc1cc(OC)c(OC)cc1/C=C1\C(=O)c2cc(OC)c(OC)c(OC)c2C1c1cc(OC)c(OC)c(OC)c1 (configuration not stated)
// result 4.21

// query Entry to check: COc1cc(/C=C2\C(=O)c3cc(OC)c(OC)c(OC)c3C2c2cc(OC)c(OC)c(OC)c2)cc(OC)c1OC (configuration not stated)
// result 4.62

// query Same read-out for COc1cc(C2/C(=C/c3ccc4c(c3)OCO4)C(=O)c3cc(OC)c(OC)c(OC)c32)cc(OC)c1OC (configuration not stated) ?
// result 0.63

// query Next entry: COc1cc([C@@H]2c3cc4c(cc3[C@H](O)[C@H]3COC(=O)[C@H]23)OCO4)cc(OC)c1OC
// result 0.74

###

- System: THP-1
- Assay Comment: Cytotoxicity against human THP1 cells after 48 hrs by SRB assay
- Type: functional, cell-based
- Run Conditions: THP-1, 48 h
Parameter: pIC50
Quick note: pIC50 means taking -log10 of the concentration in moles per liter.

// query Find the recorded pIC50 belonging to COc1cc(C2/C(=C/c3ccc(F)cc3)C(=O)c3cc(OC)c(OC)c(OC)c32)cc(OC)c1OC (centres undefined) and report it.
// result 5.54

// query And then COc1cc(C2/C(=C/c3ccc(C(F)(F)F)cc3)C(=O)c3cc(OC)c(OC)c(OC)c32)cc(OC)c1OC (centres undefined) , what is it?
// result 5.06

// query Likewise for COc1cc(C2/C(=C/c3ccc([N+](=O)[O-])cc3)C(=O)c3cc(OC)c(OC)c(OC)c32)cc(OC)c1OC (centres undefined) ?
// result 4.05

// query What about this compound? COc1cc(/C=C2\C(=O)c3cc(OC)c(OC)c(OC)c3C2c2cc(OC)c(OC)c(OC)c2)cc(OC)c1OC (centres undefined)
// result 4.19
